Test system: M19-MEL
Assay: NCI tumour cell line growth inhibition, 48 h
Active and inactive are the calls of the source. No stated cut-off is given here; in the data, active = GI50 up to about 1.1 µM and inactive = higher.
assayEndpoint: GI50

CCc1cc(Cc2cc(CC)c(NC(=O)C(=O)Cc3ccccn3)c(CC)c2Cl)c(Cl)c(CC)c1NC(=O)C(=O)Cc1ccccn1 :: > 100 µM (inactive)

Query: Read off the recorded GI50 for CC(C)C1=Cc2ccc3c(c2C(=O)C1=O)CCCC3
Reply: 2.9 µM (inactive)

Query: Read off the recorded GI50 for O=C(O)CN(CC(=O)O)Cc1cc(C#Cc2ccc(C#Cc3ccccc3)cc2)cc(CN(CC(=O)O)CC(=O)O)n1
Reply: 17.5 µM (inactive)

Query: Read off the recorded GI50 for CC(C)(C)c1cc(COc2c3sc(=S)sc3c(OCc3cc(C(C)(C)C)cc(C(C)(C)C)c3)c3sc(=S)sc23)cc(C(C)(C)C)c1
Reply: > 100 µM (inactive)

Query: Read off the recorded GI50 for NCCNCc1c2ccccc2c(CNCCN)c2ccccc12
Reply: 14.8 µM (inactive)
